Cited source for all entries: ChEMBL document CHEMBL1201862

List of GI50 values.
System: MDA-MB-231
assay.info: NCI tumour cell line growth inhibition, 48 h
Calls of active or inactive are those of the source. No stated cut-off is given here; in the data, active = GI50 up to about 1.1 µM and inactive = higher.

molecule	GI50
CCC1=C(C=O)c2cc3[nH]c(cc4nc(c5c6[nH]c(cc1n2)c(C)c6C(=O)C5C(=O)OC)C(CCC(=O)OC)C4C)c(C)c3CC (stereo unspecified)	> 100 µM (inactive)
CC1CC2CCCC(=O)C2=C(O)O1 (stereo unspecified)	> 100 µM (inactive)
CCOC(=O)C12CCC(=O)N1N(C)c1ncccc1N2 (stereo unspecified)	> 100 µM (inactive)
CCNC1=C(NC(=O)c2ccc(F)cc2)C(=O)c2ccccc2C1=O	44.8 µM (inactive)
Nc1ccc(COC(O)CN2CCCCC2)cc1[N+](=O)[O-] (stereo unspecified)	> 100 µM (inactive)
CC1=COC(C)(C=C(C#N)C#N)CC1 (stereo unspecified)	67.5 µM (inactive)

* * *

System: DU-145
assay.info: NCI tumour cell line growth inhibition, 48 h
Calls of active or inactive are those of the source. No stated cut-off is given here; in the data, active = GI50 up to about 1.1 µM and inactive = higher.

compound	GI50
COc1ccc(/C=N/Nc2nc3ccccc3c(=O)n2-c2ccccc2)c(OCc2ccccc2)c1	> 100 µM (inactive)
CC1CCCc2c(C#N)c(N)nc(-c3ccc(Cl)cc3)c21 (stereo not given)	33.7 µM (inactive)
CC1CNc2ccccc2N=C1NN (stereo not given)	> 100 µM (inactive)
Cc1ccc(C2(c3ccc(C)cc3)SC(=C(C#N)C#N)c3ccccc32)cc1	> 100 µM (inactive)
COc1ccc(C(OCC2OC(n3cc(C)c(=O)[nH]c3=O)CC2n2cc(Cn3cc(Cl)c(=O)[nH]c3=O)nn2)(c2ccccc2)c2ccccc2)cc1 (stereo not given)	> 100 µM (inactive)
O=C1C(Cl)C(c2cccc(Cl)c2)N1c1ccc(-n2c(S)nc3ccccc3c2=O)cc1 (stereo not given)	35.2 µM (inactive)
O=C1/C(=C/c2ccncc2)C(n2cccc2)c2c(Br)sc(Br)c21 (stereo not given)	3.56 µM (inactive)
Nc1ccn(C2OC(COP(=O)(O)OCC3OC(n4cc(F)c(=O)[nH]c4=O)CC3O)C(O)C2O)c(=O)n1 (stereo not given)	0.0828 µM (active)
O=C(O)c1ccc(NC(c2ccccc2)c2ccc3cccnc3c2O)cc1 (stereo not given)	17.7 µM (inactive)
COC1CC(N)(c2ccccc2)C(O)C(C)O1 (stereo not given)	> 100 µM (inactive)

* * *

System: SNB-19
assay.info: NCI tumour cell line growth inhibition, 48 h
Activity calls are given as the source filed them. Rule as the data show it: active = GI50 up to about 1.1 µM and inactive = higher.
List of GI50 values.

compound	GI50
NC1=NC(=O)C2(NN1)c1ccccc1-c1ccccc12	> 10 µM (inactive)
O=P(O)(CN1CCN(CP(=O)(O)c2ccccc2)CCN(CP(=O)(O)c2ccccc2)CC1)c1ccccc1	> 100 µM (inactive)
N#Cc1cc2c(cc1Cl)Sc1nccn1S2(=O)=O	8.2 µM (inactive)
NC(=O)N/N=C(/CC1C(=O)Oc2ccccc21)c1ccccc1O (stereo not given)	60 µM (inactive)
CC12OC3(C(O)C1O)C(C(=O)O[C@H]3CO[Si](C)(C)C(C)(C)C)C2S(=O)(=O)c1ccccc1 (stereo not given in full)	40 µM (inactive)
O=[N+]([O-])c1ccc(Cl)cc1/C=N/C12CC3CC(CC(C3)C1)C2	59.6 µM (inactive)
COc1ccc(N[S+]([O-])c2ccccc2OC)cc1 (stereo not given)	36.2 µM (inactive)
C=C(CO)[C@H]1CC/C(C)=C/CC/C(C)=C/C/C=C(\C)[C@H](O)C1	47.4 µM (inactive)
CCOC(C)OC1CC(n2cc(C)c(=O)[nH]c2=O)OC1CO (stereo not given)	> 100 µM (inactive)
Cc1ccc(C2(c3ccc(C)cc3)SC(=C(C#N)C#N)c3ccccc32)cc1	> 100 µM (inactive)
